Data credit: PubChem BioAssay (NCI)

Exercise: for every item that follows, state its recorded TGI.
Test system: DMS 114 small cell lung
protocol summary: NCI tumour cell line growth inhibition, 48 h

Example cases with answers are listed next.
CO/C(=N\N=Cc1ccccc1)c1ccncc1: > 100 µM
S=C(Nc1ccccc1)Nc1ccccc1SC(/C=C/NNC1=NC(c2ccccc2)C(c2ccccc2)=NN1)c1ccccc1 (stereo unspecified): > 100 µM
COC(=O)C1CCC2(C)[C@H](CCC3O[C@]32C)[C@@]1(C)CC(=O)c1ccoc1 (stereo partly specified): > 100 µM

I have 4 compounds here; please give me TGI for each one.
1. [N-]=[N+]=NC1C2CC3C4CC5CC3[C@H](C2)C(C5)C41 (stereo partly specified)
2. Cc1cc(O)c(C=O)c(C)c1CCC1(C)C=Cc2cc(O)ccc2O1 (stereo unspecified)
3. NC1=NS(=O)(=O)Nc2nc(-c3ccc(Cl)cc3)[nH]c21
4. O=C(Nc1ccc(Cl)c(Cl)c1)C(=O)C(C(=O)c1ccccc1F)C1OC(=O)c2ccccc21 (stereo unspecified)

["> 100 µM", "44.7 µM", "> 100 µM", "46.4 µM"]

Please go through the list and note TGI for each compound.
1. CCOc1ccc2nc(NC(=O)C(=O)C(C#N)CC(C)(C)C=O)sc2c1 (stereo unspecified)
2. Cc1nc(N)nn1C1OCC(O)C(O)C1O (stereo unspecified)
3. N#CC1(Cc2ccccc2[N+](=O)[O-])c2ccccc2C2C(N1C(=O)c1ccccc1)C2(Cl)Cl (stereo unspecified)
4. CCc1cccc(CC)c1NC(=O)C(C#N)C1=C(Cl)C(=O)c2ccccc2C1=O (stereo unspecified)

1: > 100 µM; 2: > 100 µM; 3: > 100 µM; 4: 65.4 µM

----------
Assign TGI to each entry below.
Test system: HL-60(TB) leukemia
protocol summary: NCI tumour cell line growth inhibition, 48 h

A selection of reference data follows.
ClC1=C(Cl)C(Cl)(Cl)SS1: > 7.32 µM
C/C(=N\NC(=O)c1ccncc1)c1cccc(F)c1: > 10 µM
ClCCn1cnc2c(SCc3ccccc3Cl)ncnc21: 8.94 µM
COc1ccc(OC)c2c1C(=O)C(=O)C(Cl)=C2O: > 100 µM

Provide the reported TGI of each entry below, same order.
1. Oc1ccc(-c2nc(=S)[nH][nH]2)cc1
2. CC(=O)OCC1(C)C(OC(C)=O)CCC2(C)C(CC(OC(C)=O)C3=CCOC3=O)C(O)(CO)CCC12 (configuration not stated)
3. CN(C(=O)CCC(=O)O)c1ccccc1C(=O)O

> 100 µM
> 100 µM
> 100 µM

Hey, quick one: what's TGI for each of these?
1. O=c1[nH]c2cc(F)c(F)cc2nc1Cc1ccccc1
2. CC1=NN(C(=O)c2ccc(Cl)cc2)C(=O)C1N=Nc1ccc(S(=O)(=O)Nc2ncccn2)cc1 (configuration not stated)
3. COC(=O)c1cc(C)ccc1/C=C1\Cc2cccc(C)c2C1=O

> 100 µM
> 100 µM
> 100 µM

Please state TGI for every compound in the list that follows.
1. CC(C)CSCC1OC(n2cnc3c(N)nccc32)C(O)C1O (configuration not stated)
2. COc1cc([C@@H]2C3C(=O)c4ccccc4C3[C@@H](c3cc(OC)c(OC)c(OC)c3)C23Cc2ccccc2C3=O)cc(OC)c1OC (some centres not stated)

["> 100 µM", "> 100 µM"]

----------
Tested on: SNB-75 CNS
protocol summary: NCI tumour cell line growth inhibition, 48 h; in the data active = GI50 below about 0.43 µM; inactive = the rest
Respond using exactly one of the listed classes: active, inactive

Take a look at these entries with their results.
Cc1cc(Oc2ccccc2)ccc1Nc1ncnc2ccc(-c3cnc(Cl)c(NS(C)(=O)=O)c3)cc12: active
COc1ccc(N2CCN(C(=O)c3ccc(C(F)(F)F)nc3Nc3cc(Cl)ccc3C)CC2)cc1: inactive
CC(=O)OC1Oc2ccccc2-c2oc(=O)c(-c3ccc(F)cc3)cc21 (stereo not given): inactive
COc1cc2c(cc1OCc1ccccc1)N=CC1C[C@@H](O)CN1C2=O (stereo not given in full): inactive

Proceed to the following item.
For this compound, state the assay outcome: `[Cl-].[Nd+3].[O-]/N=C(\c1ccccc1)c1ccccn1.[O-]/N=C(\c1ccccc1)c1ccccn1.[O-]/N=C(\c1ccccc1)c1ccccn1`
inactive

----------
Test system: RPMI-8226 leukemia
protocol summary: NCI tumour cell line growth inhibition, 48 h
Classification field: fulfilled = TGI at or over 40 µM; not fulfilled = TGI under 40 µM.

Below are worked cases with known answers.
O=S(=O)(Nc1ccc(Cl)cc1)c1ccc(-c2cnc(C3CC3)o2)cc1: not fulfilled
c1ccc([Si](OCCN2CC2)(c2ccccc2)c2ccccc2)cc1: not fulfilled

Determine whether measured TGI meets or exceeds 40 µM for `CCN(CC)CCCNc1[nH]ncc2cc3c(nc4ccccc43)c(C)c12`
not fulfilled

Hi, just wondering whether `CCOC(=O)N1Cc2ccoc2C1` shows TGI of 40 µM or higher.
fulfilled

Would you say `C/C(=N/OC(=O)c1cccc2c(=O)c3ccccc3[nH]c12)[C@H]1CC[C@H]2[C@@H]3CCC4=C/C(=N/OC(=O)c5cccc6c(=O)c7ccccc7[nH]c56)CC[C@]4(C)[C@H]3CC[C@]12C` shows TGI at minimum 40 µM?
not fulfilled

----------
Tested on: UACC-62 melanoma
protocol summary: NCI tumour cell line growth inhibition, 48 h
endpoint: TGI

// worked examples, TGI included
COC(=O)/C1=C/c2c([nH]c3ccccc23)/C(C(=O)OC)=C\c2c1[nH]c1ccccc21: > 50 µM
COc1ccc(Nc2nc3c(N)cc(C(F)(F)F)cc3nc2-c2ccccc2)cc1OC: 44.6 µM

Quick batch: TGI for everything below.
1. O=[N+]([O-])c1ccc(-c2noc(-c3ccccc3)c2C2=NCCN2)cc1
2. CCOC(=O)c1nnn(-c2no[n+]([O-])c2-c2ccc(OC)cc2)c1COc1cccc2cccnc12
3. CSC(Cc1ccc2c(c1)Sc1ccccc1O2)=[N+]1CCOCC1
4. CO/C(=N\N=Cc1ccccc1)c1ccncc1

> 100 µM
12.8 µM
> 100 µM
> 100 µM

----------
Would you kindly list TGI for each of these molecules?
Tested on: U251 CNS
protocol summary: NCI tumour cell line growth inhibition, 48 h

Use the examples below as a reference point.
C=C1CCc2ccccc2C1=O: > 100 µM
C[C@]12CCC(=O)CC1CC[C@@H]1C2CC[C@@]2(C)C1CC[C@@H]2OC(=O)CC[Se][Se]CCC(=O)O[C@H]1CCC2[C@@H]3CCC4CC(=O)CC[C@]4(C)C3CC[C@@]21C (some centres undefined): 3.85 µM
CCCNC(=S)N=Nc1c(O)[nH]c2ccccc12: > 100 µM
C=CCOC(=O)C[C@H](NC(=O)[C@H](Cc1ccc(O)cc1)NCC(F)(F)F)C(=O)OCC=C: > 100 µM
CC(=O)OC1CCC2(C)C(CCC3C4CC=C(C5(C)OCCO5)C4(C)CCC32)C1 (centres undefined): 39.4 µM

Look at each molecule and report its TGI.
1. COc1cc([C@@H]2C3C(=O)c4ccccc4C3[C@@H](c3cc(OC)c(OC)c(OC)c3)C23Cc2ccccc2C3=O)cc(OC)c1OC (some centres undefined)
2. CCOC(=O)/C=C1/SC(N2CCCCC2)C(=O)N1CC (centres undefined)
3. CC(=O)c1c2c(cc3c1CC1(C3)Cc3cc4c(c(C(=O)O)c3C1)CCCC4)CCCC2 (centres undefined) (tested in a mixture with another compound)
4. COc1ccc(C(O)c2cc(OC)c(OC)c(OC)c2)cc1 (centres undefined)

1. > 100 µM
2. > 100 µM
3. 72.6 µM
4. > 100 µM

----------
Provide the reported TGI of each item.
Test system: K-562 leukemia
protocol summary: NCI tumour cell line growth inhibition, 48 h

Below are worked cases with known answers.
O=C(Nc1ccc(Cl)cc1)c1cc2c(cc1Cl)Sc1nccn1S2(=O)=O: > 100 µM
C=C1CCc2ccccc2C1=O: > 100 µM
Cc1ccc(S(=O)(=O)N(CCN2C(=O)c3ccccc3C2=O)c2cc3c4c(c2)Oc2cc(N(CCN5C(=O)c6ccccc6C5=O)S(=O)(=O)c5ccc(C)cc5)cc5c2C4(C)c2c(cc(N(CCN4C(=O)c6ccccc6C4=O)S(=O)(=O)c4ccc(C)cc4)cc2O5)O3)cc1: > 100 µM
CN1c2ccccc2NC(CC(=O)O)C2CC=CN21 (stereo not given): > 100 µM

Fill in TGI for each of the 2 molecules listed.
1. O=c1[nH]c2[nH]c(-c3ccc(Br)cc3)cc2c2ccccc12
2. O=C(O)C1=CN=C(C(=O)O)NN1

["> 100 µM", "> 100 µM"]

Could you tell me TGI for each of these molecules? They are listed below.
1. COC(=O)C1Cc2c([nH]c3ccccc23)C(c2ccccc2O)N1 (stereo not given)
2. Cc1ccc(Cl)cc1-c1nc(N)nc(Nc2ccc(Br)cc2)n1
3. O=C(Nc1cccc(Cl)c1)Nc1nccs1
4. CCOC(=O)c1ccc(NC(=O)O/N=C(/Cl)CC)cc1

1. > 100 µM
2. > 100 µM
3. > 100 µM
4. 3.6 µM

// batch mode: one TGI value per listed entry
1. CN1CCN(CC(=O)N2c3ccccc3Sc3cc4ccccc4cc32)CC1
2. S=C1N=C2C(=N1)n1c3c(c4ccccc41)CCCC23 (stereo not given)

1. 33.6 µM
2. > 100 µM

Please supply TGI for each of the following items, keeping them in order.
1. CC1=C2C(=O)c3ccccc3C(=O)[C@H]2C[C@@H](N2CCCC2=O)O1
2. COC1(OC)CC(CO)(CNc2nc(N)nc(Cl)c2C=O)C1
3. CCOC(=O)/C=C1/SC(N2CCCCC2)C(=O)N1CC (stereo not given)
4. C[n+]1c2ccccc2c(Nc2ccc(N3CCCCC3)cc2)c2[nH]c3ccccc3c21
5. C[CH2][Pb]([CH2]C)([CH2]C)[O]C(=O)COc1ccccc1
6. ClCCn1cnc2c(SCc3ccccc3Cl)ncnc21

1. > 100 µM
2. 32.1 µM
3. > 100 µM
4. 0.353 µM
5. 6.64 µM
6. > 59.1 µM
